# Protocol Description: Mean serum concentration in neonatal piglets after intramuscular or oral administration
# Format: in vivo
# Cond: pig, po, 50 mg/kg, 10'
Endpoint Label: concentration at 10 min (ng/mL)

# Compound, Observed Result
measured = [
    ("CC(=CC(=O)OCCCC(=O)c1ccccc1)CC1OCC(CC2OC2C(C)C(C)O)C(O)C1O (centres unmarked) [Example 5, 4-Phenylbutan-4-onyl monate A]", 1200),
    ("CC(=CC(=O)OCCCC(=O)c1cccs1)CC1OCC(CC2OC2C(C)C(C)O)C(O)C1O (centres unmarked) [Example 4, 4(1-Thienyl-2-ylbutan-1-onyl) monate A]", 5300),
]

---

# Tested on: Strep agalactiae SPA1
# Protocol Description: MIC, veterinary bacteria
# Type: cell-based
# Cond: veterinary bacteria (Table 2), read-out: MIC
Threshold-based label: MIC under 0.6 µg/mL gives Y, MIC not under 0.6 µg/mL gives N.

# Compound, Experimental System, Group
data = [
    ("CC(=CC(=O)OCCCC(=O)c1ccccc1)CC1OCC(CC2OC2C(C)C(C)O)C(O)C1O (stereo not drawn) [Example 5, 4-Phenylbutan-4-onyl monate A]", "Strep agalactiae SPA1", "N"),
    ("CC(=O)COC(=O)C=C(C)CC1OCC(CC2OC2C(C)C(C)O)C(O)C1O (stereo not drawn) [Example 1, Acetvlmethvl Monate A]", "Strep agalactiae SPA1", "N"),
    ("CC(=O)CCCOC(=O)C=C(C)CC1OCC(CC2OC2C(C)C(C)O)C(O)C1O (stereo not drawn) [Example 2, 3-Acetvlpropvl Monate A]", "Strep agalactiae SPA1", "N"),
    ("CC(=CC(=O)OCCCC(=O)c1cccs1)CC1OCC(CC2OC2C(C)C(C)O)C(O)C1O (stereo not drawn) [Example 4, 4(1-Thienyl-2-ylbutan-1-onyl) monate A]", "Strep agalactiae SPA1", "Y"),
    ("CC(=CC(=O)OC1CCCC(=O)CCC1)CC1OCC(CC2OC2C(C)C(C)O)C(O)C1O (stereo not drawn) [Example 10, Cyclooctan-5-onyl monate A]", "Strep agalactiae SPA1", "N"),
    ("CC(=O)Nc1ccc(C(=O)CCCOC(=O)C=C(C)CC2OCC(CC3OC3C(C)C(C)O)C(O)C2O)cc1 (stereo not drawn) [Example 9]", "Strep agalactiae SPA1", "N"),
]

---

# Tested on: Staph aureus B4 (pen resis)
# Protocol Description: MIC, veterinary bacteria
# Format: cell-based
# Cond: Staphylococcus aureus, veterinary bacteria (Table 2), read-out: MIC

# Compound, Experimental System, Unit Symbol, MIC
records = [
    ("CC(=O)COC(=O)C=C(C)CC1OCC(CC2OC2C(C)C(C)O)C(O)C1O (stereo not drawn) [Example 1, Acetvlmethvl Monate A]", "Staph aureus B4 (pen resis)", "mg/L", 2.5),
    ("CC(=CC(=O)OC1CCCC(=O)CCC1)CC1OCC(CC2OC2C(C)C(C)O)C(O)C1O (stereo not drawn) [Example 10, Cyclooctan-5-onyl monate A]", "Staph aureus B4 (pen resis)", "mg/L", 2.5),
    ("CC(=O)Nc1ccc(C(=O)CCCOC(=O)C=C(C)CC2OCC(CC3OC3C(C)C(C)O)C(O)C2O)cc1 (stereo not drawn) [Example 9]", "Staph aureus B4 (pen resis)", "mg/L", 1.25),
    ("CC(=CC(=O)OCCCC(=O)c1ccccc1)CC1OCC(CC2OC2C(C)C(C)O)C(O)C1O (stereo not drawn) [Example 5, 4-Phenylbutan-4-onyl monate A]", "Staph aureus B4 (pen resis)", "mg/L", 0.156),
    ("CC(=CC(=O)OCCCC(=O)c1cccs1)CC1OCC(CC2OC2C(C)C(C)O)C(O)C1O (stereo not drawn) [Example 4, 4(1-Thienyl-2-ylbutan-1-onyl) monate A]", "Staph aureus B4 (pen resis)", "mg/L", 0.156),
    ("CC(=O)CCCOC(=O)C=C(C)CC1OCC(CC2OC2C(C)C(C)O)C(O)C1O (stereo not drawn) [Example 2, 3-Acetvlpropvl Monate A]", "Staph aureus B4 (pen resis)", "mg/L", 1.25),
]

---

# Protocol Description: Mean serum concentration in neonatal piglets after intramuscular or oral administration
# Format: in vivo
# Cond: pig, po, 50 mg/kg, 20'
Endpoint Label: concentration at 20 min (ng/mL)

# Molecule, Endpoint Label, Unit Symbol, Observed Result
rows = [
    ("CC(=CC(=O)OCCCC(=O)c1ccccc1)CC1OCC(CC2OC2C(C)C(C)O)C(O)C1O (centres unmarked) [Example 5, 4-Phenylbutan-4-onyl monate A]", "concentration at 20 min", "ng/mL", 1200),
    ("CC(=CC(=O)OCCCC(=O)c1cccs1)CC1OCC(CC2OC2C(C)C(C)O)C(O)C1O (centres unmarked) [Example 4, 4(1-Thienyl-2-ylbutan-1-onyl) monate A]", "concentration at 20 min", "ng/mL", 5500),
]

---

# Protocol Description: Mean serum concentration in neonatal piglets after intramuscular or oral administration
# Format: in vivo
# Cond: pig, po, 50 mg/kg, 24h
Endpoint Label: concentration at 24 h (ng/mL)

# Molecule, Endpoint Label, Inequality Sign, Observed Result
data = [
    ("CC(=CC(=O)OCCCC(=O)c1cccs1)CC1OCC(CC2OC2C(C)C(C)O)C(O)C1O (centres unmarked) [Example 4, 4(1-Thienyl-2-ylbutan-1-onyl) monate A]", "concentration at 24 h", "=", 150),
    ("CC(=CC(=O)OCCCC(=O)c1ccccc1)CC1OCC(CC2OC2C(C)C(C)O)C(O)C1O (centres unmarked) [Example 5, 4-Phenylbutan-4-onyl monate A]", "concentration at 24 h", "<", 200),
]

---

The compounds listed here are annotated with their concentration at 8 h.
# Protocol Description: Mean serum concentration in neonatal piglets after intramuscular or oral administration
# Assay type: in vivo
# Cond: pig, po, 50 mg/kg, 8h
Endpoint Label: concentration at 8 h (ng/mL)

# Compound, Observed Result
data = [
    ("CC(=CC(=O)OCCCC(=O)c1ccccc1)CC1OCC(CC2OC2C(C)C(C)O)C(O)C1O (centres unmarked) [Example 5, 4-Phenylbutan-4-onyl monate A]", 30),
    ("CC(=CC(=O)OCCCC(=O)c1cccs1)CC1OCC(CC2OC2C(C)C(C)O)C(O)C1O (centres unmarked) [Example 4, 4(1-Thienyl-2-ylbutan-1-onyl) monate A]", 740),
]

---

# Test system: E coli E1
# Protocol Description: MIC, veterinary bacteria
# Type: cell-based
# Cond: veterinary bacteria (Table 2), read-out: MIC

# Molecule, MIC
data = [
    ("CC(=CC(=O)OCCCC(=O)c1ccccc1)CC1OCC(CC2OC2C(C)C(C)O)C(O)C1O (stereo not drawn) [Example 5, 4-Phenylbutan-4-onyl monate A]", "80 µg/mL"),
    ("CC(=O)Nc1ccc(C(=O)CCCOC(=O)C=C(C)CC2OCC(CC3OC3C(C)C(C)O)C(O)C2O)cc1 (stereo not drawn)", "> 80 µg/mL"),
    ("CC(=CC(=O)OC1CCCC(=O)CCC1)CC1OCC(CC2OC2C(C)C(C)O)C(O)C1O (stereo not drawn) [Example 10, Cyclooctan-5-onyl monate A]", "> 80 µg/mL"),
    ("CC(=O)CCCOC(=O)C=C(C)CC1OCC(CC2OC2C(C)C(C)O)C(O)C1O (stereo not drawn) [Example 2, 3-Acetvlpropvl Monate A]", "> 80 µg/mL"),
    ("CC(=O)COC(=O)C=C(C)CC1OCC(CC2OC2C(C)C(C)O)C(O)C1O (stereo not drawn) [Example 1, Acetvlmethvl Monate A]", "> 80 µg/mL"),
    ("CC(=CC(=O)OCCCC(=O)c1cccs1)CC1OCC(CC2OC2C(C)C(C)O)C(O)C1O (stereo not drawn) [Example 4, 4(1-Thienyl-2-ylbutan-1-onyl) monate A]", "> 80 µg/mL"),
]

---

# Protocol Description: Mean serum concentration in neonatal piglets after intramuscular or oral administration
# Format: in vivo
# Cond: pig, po, 50 mg/kg, 6h
Endpoint Label: concentration at 6 h (ng/mL)

# Compound, Observed Result
data = [
    ("CC(=CC(=O)OCCCC(=O)c1cccs1)CC1OCC(CC2OC2C(C)C(C)O)C(O)C1O (centres unmarked) [Example 4, 4(1-Thienyl-2-ylbutan-1-onyl) monate A]", 770),
    ("CC(=CC(=O)OCCCC(=O)c1ccccc1)CC1OCC(CC2OC2C(C)C(C)O)C(O)C1O (centres unmarked) [Example 5, 4-Phenylbutan-4-onyl monate A]", 50),
]
